src = PubChem BioAssay (NCI)

- ASSAY_INFO: NCI Yeast Anticancer Drug Screen. Data for the mec2-1 strain (AID 157)
- CONDITION_NOTES: S. cerevisiae mec2-1 strain, at 5.0 µM (retest, dose inferred, filed as 0.5), hits give high values
About 79,000 compounds went through this panel and 15% of them were active in at least one assay; those are over-represented in the sample as a whole.
QUANTITY_KIND: growth inhibition (%)
One number for each entry, in %.

Check out these entries, answers already filled in.
Nc1ccc(Cl)cc1C(=O)c1ccccc1Cl :: -3
O=C1C=CC(=O)N1c1cccc2ccccc12 (tested in a mixture with another compound) :: -39

Give growth inhibition for each listed item.
1. NCCBr
2. Cc1ccc(C(=O)CCl)o1
3. COc1cc(CC(=O)N2CC2)cc(OC)c1OC
4. Cc1ccc(C(=O)OC(C(=O)O)C(OC(=O)c2ccc(C)cc2)C(=O)O)cc1 (centres undefined) (tested in a mixture with another compound)
5. CSc1nncc(=O)[nH]1.[Hg]
6. CC(C)(Br)C(=O)C(Br)Br
7. O=S(=O)(O)O.[Pt].c1ccc([PH+](c2ccccc2)c2ccccc2)cc1.c1ccc([PH+](c2ccccc2)c2ccccc2)cc1.c1ccc([PH+](c2ccccc2)c2ccccc2)cc1
8. Cc1cc(O)c2c(c1)C(=O)C13C(=C2O)C(=O)C2C(O)C1C1C(O)C3C(=O)C3=C(O)c4c(O)cc(C)cc4C(=O)C321 (centres undefined)

Ans:
1. -1
2. -29
3. 0
4. -7
5. 99
6. 100
7. 13
8. 57

Give growth inhibition for each listed item.
1. CCc1ccc([O-])c(C=NCCCN(C)CCCN=Cc2cc(C)ccc2[O-])c1.[Co+3].[N-]=[N+]=[N-]
2. c1ccc2cc3n[se]nc3cc2c1
3. O=C1CN2C(Cl)(Cl)C2(c2ccccc2)c2cc(Cl)ccc2N1CC1CC1 (centres undefined)
4. CC1(C)N=C(N)N=C(N)N1c1cccc(N)c1.[Sn]

Ans:
-8
-14
29
7

Give growth inhibition for each listed item.
1. c1c(N2CCOCC2)ssc1=[N+]1CCOCC1
2. CCN(CC)C(=S)S

Ans:
0
66
